Tested on: large crabgrass (Digitaria sanguinalis)
PROTOCOL TEXT: Test A pre-/postemergence plant response
Type: in vivo
REPORTED CONDITIONS: Postemergence, 500 g ai/ha; visual injury, 0 to 100 scale (0 no effect, 100 complete control), approx. ten days
Reported values of Crabgrass, Large plant response rating for individual entries

{"columns": ["COMPOUND", "TARGET DESC", "Crabgrass, Large plant response rating"],
 "data": [
  ["O=C1CCCC(O)=C1C(=O)c1cnc(-c2cc(F)c(F)c(F)c2)n(C2CCCCC2)c1=O", "large crabgrass (Digitaria sanguinalis)", 90],
  ["O=C1CCCC(O)=C1C(=O)c1cnc(-c2ccccc2)n(C2CC[S+]([O-])CC2)c1=O (mixture of isomers)", "large crabgrass (Digitaria sanguinalis)", 90],
  ["Cc1ccccc1-n1c(-c2cc(F)cc(F)c2)ncc(C(=O)C2=C(O)CCCC2=O)c1=O", "large crabgrass (Digitaria sanguinalis)", 90],
  ["CCCn1c(-c2cccc(Cl)c2)ncc(C(=O)C2=C(O)CCCC2=O)c1=O", "large crabgrass (Digitaria sanguinalis)", 90],
  ["CCn1c(-c2ccccc2)ncc(C(=O)C2=C(O)C3CCC(C3)C2=O)c1=O (stereo not shown)", "large crabgrass (Digitaria sanguinalis)", 90],
  ["O=C1CCCC(O)=C1C(=O)c1cnc(-c2cc(F)cc(F)c2)n(-c2ccccc2)c1=O", "large crabgrass (Digitaria sanguinalis)", 90],
  ["O=C1CCCC(O)=C1C(=O)c1cnc(-c2cccs2)n(C2CCCCC2)c1=O", "large crabgrass (Digitaria sanguinalis)", 90]
]}
